Data origin: patent US6835371B1

Quick reference for Ki among some compounds
# Target Desc: human norepinephrine transporter (hNET) (Homo sapiens)
# Sequence (P23975 whole entry): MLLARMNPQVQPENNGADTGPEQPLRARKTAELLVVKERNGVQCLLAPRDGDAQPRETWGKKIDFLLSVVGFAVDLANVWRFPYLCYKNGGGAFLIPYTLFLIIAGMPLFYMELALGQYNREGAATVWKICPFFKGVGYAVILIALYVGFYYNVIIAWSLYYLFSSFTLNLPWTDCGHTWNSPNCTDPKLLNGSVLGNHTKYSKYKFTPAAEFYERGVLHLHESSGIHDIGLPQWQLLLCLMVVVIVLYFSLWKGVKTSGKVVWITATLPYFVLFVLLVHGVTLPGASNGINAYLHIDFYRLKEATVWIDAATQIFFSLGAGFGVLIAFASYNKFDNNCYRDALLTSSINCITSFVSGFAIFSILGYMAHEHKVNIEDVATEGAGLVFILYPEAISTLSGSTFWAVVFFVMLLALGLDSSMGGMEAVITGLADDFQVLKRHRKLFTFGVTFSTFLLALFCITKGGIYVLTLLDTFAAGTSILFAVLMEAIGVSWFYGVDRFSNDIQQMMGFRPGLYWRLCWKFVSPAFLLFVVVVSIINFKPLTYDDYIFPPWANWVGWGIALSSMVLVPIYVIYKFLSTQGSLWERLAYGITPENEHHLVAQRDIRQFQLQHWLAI
# Method Notes: biochemical
# Assay type: binding
# Run Parameters: read-out: [125I]RTI-55 binding Ki, NET
Experimental Endpoint: Ki

>  <Compound>
NC(=O)C1CCCN(CCCCOC(c2ccc(F)cc2)c2ccc(F)cc2)C1 (stereo not drawn) [Compound 31628]

>  <Reading>
0.578 µM

$$$$
>  <Compound>
O=c1[nH]c2ccccc2n1C1CCN(CCCCOC(c2ccc(F)cc2)c2ccc(F)cc2)CC1 [Compound 31649]

>  <Reading>
0.0222 µM

$$$$
>  <Compound>
COc1ccccc1N1CCN(CCCCOC(c2ccc(F)cc2)c2ccc(F)cc2)CC1 [Compound 31654]

>  <Reading>
0.092 µM

$$$$
>  <Compound>
Fc1ccc(C(OCCCCN2CCN(c3cccc(C(F)(F)F)c3)CC2)c2ccc(F)cc2)cc1 [Compound 31532]

>  <Reading>
0.222 µM

$$$$
>  <Compound>
OC1CCN(CCCCOC(c2ccc(F)cc2)c2ccc(F)cc2)CC1 [Compound 31648]

>  <Reading>
0.61 µM

$$$$
>  <Compound>
Fc1ccc(C(OCCCCN2CCN(c3ccccc3Cl)CC2)c2ccc(F)cc2)cc1 [Compound 31626]

>  <Reading>
0.54 µM

$$$$
>  <Compound>
Fc1ccc(C(OCCCCN2CCN(c3cccc(Cl)c3)CC2)c2ccc(F)cc2)cc1 [Compound 31651]

>  <Reading>
0.3 µM

$$$$
>  <Compound>
O=C1CN(CCCCOC(c2ccc(F)cc2)c2ccc(F)cc2)CCN1 [Compound 31524]

>  <Reading>
> 10 µM

$$$$
>  <Compound>
OC1CCCN(CCCCOC(c2ccc(F)cc2)c2ccc(F)cc2)C1 (stereo not drawn) [Compound 31650]

>  <Reading>
0.611 µM

$$$$

----------
# Target Desc: UniProt Q01959
# Method Notes: cell-based
Experimental Endpoint: Discrimination ratio uptake/binding (DA)

>  <Compound>
Fc1ccc(C(OCCCCN2CCN(c3cccc(C(F)(F)F)c3)CC2)c2ccc(F)cc2)cc1

>  <Reading>
11.7

$$$$
>  <Compound>
Fc1ccc(C(OCCCCN2CCN(c3ccc(F)cc3)CC2)c2ccc(F)cc2)cc1

>  <Reading>
23.0

$$$$
>  <Compound>
Fc1ccc(C(OCCCCN2CCNC(c3ccccc3)C2)c2ccc(F)cc2)cc1 (centres unmarked)

>  <Reading>
144.4

$$$$
>  <Compound>
O=C1CN(CCCCOC(c2ccc(F)cc2)c2ccc(F)cc2)CCN1

>  <Reading>
0.6

$$$$
>  <Compound>
CC(=O)C1(c2ccccc2)CCN(CCCCOC(c2ccc(F)cc2)c2ccc(F)cc2)CC1

>  <Reading>
47.5

$$$$
>  <Compound>
OC1(c2ccccc2)CCN(CCCCOC(c2ccc(F)cc2)c2ccc(F)cc2)CC1

>  <Reading>
15.0

$$$$
>  <Compound>
Fc1ccc(C(OCCCCN2CCN(c3ccccc3F)CC2)c2ccc(F)cc2)cc1

>  <Reading>
11.9

$$$$
>  <Compound>
OC1(c2ccc(Br)cc2)CCN(CCCCOC(c2ccc(F)cc2)c2ccc(F)cc2)CC1

>  <Reading>
110.5

$$$$

----------
# Target Desc: human dopamine transporter (hDAT) (Homo sapiens)
# Sequence (Q01959 whole entry): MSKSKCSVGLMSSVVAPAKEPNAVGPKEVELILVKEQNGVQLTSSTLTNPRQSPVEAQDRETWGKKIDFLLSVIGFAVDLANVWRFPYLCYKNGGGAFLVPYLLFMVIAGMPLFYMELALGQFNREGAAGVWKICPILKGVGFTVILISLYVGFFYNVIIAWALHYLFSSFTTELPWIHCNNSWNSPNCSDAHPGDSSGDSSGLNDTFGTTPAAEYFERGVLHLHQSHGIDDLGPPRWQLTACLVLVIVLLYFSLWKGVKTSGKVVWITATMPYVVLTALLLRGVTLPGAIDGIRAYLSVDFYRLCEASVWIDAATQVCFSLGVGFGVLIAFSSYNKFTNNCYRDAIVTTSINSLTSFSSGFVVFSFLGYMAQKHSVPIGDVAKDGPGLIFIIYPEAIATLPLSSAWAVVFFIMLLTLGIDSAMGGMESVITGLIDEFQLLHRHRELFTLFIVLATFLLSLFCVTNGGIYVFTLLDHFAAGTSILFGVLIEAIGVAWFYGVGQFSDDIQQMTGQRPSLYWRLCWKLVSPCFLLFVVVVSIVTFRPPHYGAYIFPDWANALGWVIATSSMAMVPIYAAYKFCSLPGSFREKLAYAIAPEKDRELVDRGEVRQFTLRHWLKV
# Method Notes: biochemical
# Assay type: binding
# Run Parameters: [125I]RTI-55 binding Ki, DAT
// assign label 1 if Ki falls strictly below 30 nM, else label 0 (ties count as label 0)

>  <Smiles String>
OC1(c2ccc(Cl)cc2)CCN(CCCCOC(c2ccc(F)cc2)c2ccc(F)cc2)CC1

>  <Category>
label 1

$$$$
>  <Smiles String>
Fc1ccc(C(OCCCCN2CCN(c3ccccc3)CC2)c2ccc(F)cc2)cc1

>  <Category>
label 0

$$$$
>  <Smiles String>
OC1(c2ccccc2)CCN(CCCCOC(c2ccc(F)cc2)c2ccc(F)cc2)CC1

>  <Category>
label 1

$$$$
>  <Smiles String>
Fc1ccc(C(OCCCCN2CCN(c3ccc(Cl)cc3)CC2)c2ccc(F)cc2)cc1

>  <Category>
label 0

$$$$
>  <Smiles String>
Fc1ccc(C(OCCCCN2CCN(c3cccc(C(F)(F)F)c3)CC2)c2ccc(F)cc2)cc1

>  <Category>
label 0

$$$$
>  <Smiles String>
Fc1ccc(C(OCCCCN2CCN(c3ccc(F)cc3)CC2)c2ccc(F)cc2)cc1

>  <Category>
label 1

$$$$
>  <Smiles String>
Fc1ccc(C(OCCCCN2CCN(c3ccccc3F)CC2)c2ccc(F)cc2)cc1

>  <Category>
label 0

$$$$
>  <Smiles String>
CC(=O)C1(c2ccccc2)CCN(CCCCOC(c2ccc(F)cc2)c2ccc(F)cc2)CC1

>  <Category>
label 1

$$$$
